Listed below: pIC50 values for each entry.
# test_target: Sterol 14-alpha demethylase (Trypanosoma cruzi (strain CL Brener), UniProt Q7Z1V1)
# Sequence (Q7Z1V1 whole entry): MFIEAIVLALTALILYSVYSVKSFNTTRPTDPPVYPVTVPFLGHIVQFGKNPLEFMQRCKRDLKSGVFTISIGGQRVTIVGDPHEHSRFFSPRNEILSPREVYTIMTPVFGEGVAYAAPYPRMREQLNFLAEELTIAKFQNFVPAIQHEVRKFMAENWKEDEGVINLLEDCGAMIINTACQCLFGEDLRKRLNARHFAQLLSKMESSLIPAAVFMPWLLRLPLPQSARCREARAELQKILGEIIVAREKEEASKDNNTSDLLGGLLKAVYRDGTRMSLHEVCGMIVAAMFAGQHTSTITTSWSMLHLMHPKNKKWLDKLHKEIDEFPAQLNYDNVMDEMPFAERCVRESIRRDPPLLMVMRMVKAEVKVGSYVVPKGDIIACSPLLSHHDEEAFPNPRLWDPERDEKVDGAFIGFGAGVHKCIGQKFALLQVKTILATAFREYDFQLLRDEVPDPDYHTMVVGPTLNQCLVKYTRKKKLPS
# assay_details: GSK_TCAKS: pIC50 CYP51 from Trypanosoma cruzi.
# Format: functional
pIC50: −log10 of the molar value.
reported_property: pIC50

cpd_smiles=CS(=O)(=O)c1ccc(CC(=O)Nc2nc(-c3ccc(Cl)s3)cs2)cc1 test_target="Sterol 14-alpha demethylase (Trypanosoma cruzi (strain CL Brener), UniProt Q7Z1V1)" result="< 4.00"
cpd_smiles=O=C(COc1ncnc2cc([N+](=O)[O-])ccc12)NC(=O)NC1CCCCC1 test_target="Sterol 14-alpha demethylase (Trypanosoma cruzi (strain CL Brener), UniProt Q7Z1V1)" result="< 4.00"
cpd_smiles=Cn1nc([N+](=O)[O-])nc1N1CCCCC1 test_target="Sterol 14-alpha demethylase (Trypanosoma cruzi (strain CL Brener), UniProt Q7Z1V1)" result="< 4.00"

====

# assay_details: GSK_TCAKS: pIC50 HepG2 human cell line viability assay using luminiscence. […] Seeding density was checked to ensure that new mono-layers were not more than 50% confluent at the time of harvesting. Cell suspension was added to 500 mL of the same medium at a final density of 1.2 * 10^5 cells/mL. This cell suspension was dispensed (25 uL, 3000 cells per well) into 384-well clear-bottom plates using a Multidrop Combi dispenser. Prior to addition of the cell suspension, the screening compounds (250 nL) were pre-dispensed into the plates with an Echo liquid handler. Plates were incubated for 48 h at 37C, 5% CO2. After incubation, plates equilibrated at room temperature for 30 min before proceeding to develop the luminescent signal. The signal developer, CellTiter-Glo Reagent, was allowed to equilibrate at room temperature for 30 min and added to the plates (25uL per well) using a Multidrop Combi dispenser. Plates were left for 10 min at room temperature for stabilization and then read using a ViewLux.
# Type: toxicity, cell-based
reported_property: IC50 at 48 h

compound=CN(Cc1nc2ccccc2s1)C(=O)C=Cc1cc2ccccc2o1 reported_property="IC50 at 48 h" result="> 100 µM"
compound=Cc1cc2nc(N3CC[C@H]3C(N)=O)nc(Nc3cc(C4CC4)[nH]n3)c2s1 reported_property="IC50 at 48 h" result="> 100 µM"
compound=COc1cnc2ccc(=O)n(CCN3CCC(NC(=O)c4ccc(Cl)cc4)CC3)c2c1 reported_property="IC50 at 48 h" result="> 100 µM"
compound=CNc1c(C(N)=O)c(-c2ccc3scnc3c2)nn1CC(F)(F)F reported_property="IC50 at 48 h" result="> 100 µM"
compound="Cc1ccc(NC(=O)C(C)n2nc([N+](=O)[O-])c(Br)c2C)cc1Cl (configuration not stated)" reported_property="IC50 at 48 h" result="79.4 µM"
compound=Cc1cc2cc(CNc3ccc4c(c3)OCO4)c(=O)n(CCO)c2cc1C reported_property="IC50 at 48 h" result="> 100 µM"
compound="O=C(c1cnn(-c2ccccc2)n1)N1CCCC(n2ccnc2)C1 (configuration not stated)" reported_property="IC50 at 48 h" result="> 100 µM"
compound=COc1ccccc1C(=O)Nc1nnc(-c2ccc3c(c2)OCO3)s1 reported_property="IC50 at 48 h" result="> 100 µM"
compound=CC(C)S(=O)(=O)c1ccc(-c2cnc(N)c3cc(-c4ccnc(N)n4)ccc23)cc1 reported_property="IC50 at 48 h" result="15.8 µM"
compound=O=C(NCCc1ccn(-c2ccccc2)n1)C1CCCCC1 reported_property="IC50 at 48 h" result="> 100 µM"
compound=Cc1cc(-c2cccc3ccccc23)nc2nc(N)nc(N)c12 reported_property="IC50 at 48 h" result="50.1 µM"
compound=CN(Cc1cccnc1)Cc1ccc(N2CCN(C(=O)C3(c4ccc(Cl)cc4)CC3)CC2)nc1 reported_property="IC50 at 48 h" result="> 100 µM"
compound=COc1ccc(Cc2nnc(-c3ncc4cccnc4c3O)[nH]2)cc1OC reported_property="IC50 at 48 h" result="50.1 µM"
compound="O=C(Nc1ccc(C(=O)N2CCCC2c2ccc3c(c2)OCCCO3)cc1)c1ccco1 (configuration not stated)" reported_property="IC50 at 48 h" result="> 100 µM"
compound=Cc1cc(NC(=O)CC2CCCCC2)n(-c2nc3c(c(=O)[nH]2)CCC3)n1 reported_property="IC50 at 48 h" result="> 100 µM"
compound=Cn1nc([N+](=O)[O-])nc1N1CCCCC1 reported_property="IC50 at 48 h" result="> 100 µM"
compound="O=C(Nc1cccc(Cl)c1)N1CCCCC1c1cccnc1 (configuration not stated)" reported_property="IC50 at 48 h" result="> 100 µM"

====

Listed below: pIC50 values for each entry.
# test_target: Sterol 14-alpha demethylase (Trypanosoma cruzi (strain CL Brener), UniProt Q7Z1V1)
# assay_details: GSK_TCAKS: pIC50 CYP51 from Trypanosoma cruzi.
pIC50: −log10 of the molar value.
reported_property: pIC50

molecule=COc1ccc(-c2csc(NC(=O)c3ccc([N+](=O)[O-])s3)n2)cc1OC reported_property=pIC50 qualifier=< numeric_value=4.00
molecule=CCCNC(=O)Nc1cccc(-c2nc3ncccc3o2)c1 reported_property=pIC50 qualifier=< numeric_value=4.00
molecule=COCc1cc(Nc2ccc(Cl)cc2)nc(-c2ccccn2)n1 reported_property=pIC50 qualifier=< numeric_value=4.00
molecule=COc1ccc(S(=O)(=O)NC(C)C)cc1Nc1ncc(-c2cccc(F)c2)cn1 reported_property=pIC50 qualifier=< numeric_value=4.00
molecule=O=C(Nc1nc(-c2ccccn2)cs1)c1ccccc1-n1cnnn1 reported_property=pIC50 qualifier=< numeric_value=4.00
molecule=O=C1c2cnc(N3CCCC3)nc2CN1c1ccc2c(c1)OCO2 reported_property=pIC50 qualifier=< numeric_value=4.00
molecule=COc1ccccc1-c1c(C)[nH]c2nc(N)nc(C)c12 reported_property=pIC50 qualifier=< numeric_value=4.00
molecule=Cc1ccc(S(C)(=O)=O)cc1Nc1nccc(-c2sc(N)nc2-c2ccccc2)n1 reported_property=pIC50 qualifier=< numeric_value=4.00
molecule="COc1ccc(C(=O)N2CCC(Nc3cccnc3)C2)c(OC)n1 (configuration not stated)" reported_property=pIC50 qualifier== numeric_value=7.20
molecule=CN(C)CCN(C)Cc1ccc(F)cc1NS(=O)(=O)c1ccc(Cl)c(Cl)c1 reported_property=pIC50 qualifier=< numeric_value=3.90
molecule="CCCCc1cc(Nc2cc(C3CCC3)[nH]n2)nc(N2CCC2C(N)=O)n1 (configuration not stated)" reported_property=pIC50 qualifier=< numeric_value=4.00
molecule="CC1(Oc2cncc(Cl)c2)CCN(Cc2cc3ccccc3[nH]2)C1 (configuration not stated)" reported_property=pIC50 qualifier== numeric_value=5.00
molecule="CNc1cncc(C2CCCN2C(=O)Cc2ccc3ccccc3c2)n1 (configuration not stated)" reported_property=pIC50 qualifier== numeric_value=7.00
molecule=Cn1cc(CN2CCN(c3ccc4c(c3)CCN(C(=O)[C@H]3C[C@@H]3c3ccccc3)CC4)CC2)cn1 reported_property=pIC50 qualifier== numeric_value=4.80
molecule=O=c1ccn(-c2ccc([N+](=O)[O-])cc2Cl)c2ccc(F)cc12 reported_property=pIC50 qualifier== numeric_value=4.80
molecule="COc1cc(C2SCC(=O)Nc3c2c(C)nn3-c2nc3ccccc3s2)cc(OC)c1O (configuration not stated)" reported_property=pIC50 qualifier== numeric_value=5.30
molecule=COc1ccc(S(=O)(=O)Nc2ccc(CN3CCN(C(=O)c4cccc(C#N)c4)CC3)cc2)cc1 reported_property=pIC50 qualifier=< numeric_value=4.00
molecule=O=C(CCc1ccc(-c2ccccc2)o1)N1CCN(c2ccc(O)cc2)CC1 reported_property=pIC50 qualifier== numeric_value=5.60
molecule=CN(Cc1cc2ccccc2s1)c1ncc2c(N)nc(N)nc2n1 reported_property=pIC50 qualifier=< numeric_value=4.00
molecule=Cc1cc(-c2cccc3ccccc23)nc2nc(N)nc(N)c12 reported_property=pIC50 qualifier=< numeric_value=4.00
molecule="OCC1CCCCN1c1cc(-c2ccccn2)nc(Nc2ccccc2)n1 (configuration not stated)" reported_property=pIC50 qualifier== numeric_value=4.10
molecule=CCCCCNC(=O)c1c[nH]c2ccc(S(=O)(=O)N(C)c3ccc(OCC)cc3)cc2c1=O reported_property=pIC50 qualifier== numeric_value=5.80
molecule=O=C(CCCNC(=O)c1ccc(Cl)cc1)Nc1nc(-c2ccccn2)cs1 reported_property=pIC50 qualifier== numeric_value=5.50
molecule=CC(=Cc1ccccc1)CN1CCC(=O)N(Cc2cccnc2)CC1 reported_property=pIC50 qualifier== numeric_value=7.00
molecule="CCOC(=O)c1cn[nH]c1S(=O)(=O)N1CCC1c1ccccc1 (configuration not stated)" reported_property=pIC50 qualifier== numeric_value=4.30
molecule=CCN(CC)S(=O)(=O)c1ccc(C(=O)Nc2cc(C)nn2-c2nc(C)c(C)c(=O)[nH]2)cc1 reported_property=pIC50 qualifier=< numeric_value=4.00
molecule=Cc1ccc(C)c(-n2nnnc2Sc2nc([N+](=O)[O-])nn2C)c1 reported_property=pIC50 qualifier=< numeric_value=4.00
